- Tested on: S. aureus Newman;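 note: OD595 on entry to stationary phase over no-drug wells; at most 1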
- testName: fitness (endpoint OD595 vs no drug) (fraction); higher = more growth
- conditionLabel: first compound 0.5 µg/mL; partner 1.25 µg/mL
readoutType: fitness

{"molecule": "CC1=C(C(=O)O)N2C(=O)[C@@H](NC(=O)[C@H](N)c3ccccc3)[C@H]2SC1 [Cephalexin] + CN1C2=CC=CC=C2N=C3C1=CC=CC3=O [Pyocyanin]", "readoutType": "fitness", "recordedResult": 0.92}
{"molecule": "CC[C@H]1OC(=O)[C@H](C)[C@@H](O[C@H]2C[C@@](C)(OC)[C@@H](O)[C@H](C)O2)[C@H](C)[C@@H](O[C@@H]2O[C@H](C)C[C@H](N(C)C)[C@H]2O)[C@](C)(O)C[C@@H](C)CN(C)[C@H](C)[C@@H](O)[C@]1(C)O [Azithromycin] + C[n+]1ccc(-c2cc[n+](C)cc2)cc1 [Paraquat]", "readoutType": "fitness", "recordedResult": 0.55}
{"molecule": "CC[C@H]1OC(=O)[C@H](C)[C@@H](O[C@H]2C[C@@](C)(OC)[C@@H](O)[C@H](C)O2)[C@H](C)[C@@H](O[C@@H]2O[C@H](C)C[C@H](N(C)C)[C@H]2O)[C@](C)(O)C[C@@H](C)CN(C)[C@H](C)[C@@H](O)[C@]1(C)O [Azithromycin] + CO/N=C(\\C(=O)N[C@@H]1C(=O)N2C(C(=O)O)=C(COC(C)=O)CS[C@H]12)c1csc(N)n1 [Cefotaxime]", "readoutType": "fitness", "recordedResult": 0.0342}
{"molecule": "CC1=C(C(=O)O)N2C(=O)[C@@H](NC(=O)[C@H](N)c3ccccc3)[C@H]2SC1 [Cephalexin] + Cc1ncc([N+](=O)[O-])n1CCO [Metronidazole]", "readoutType": "fitness", "recordedResult": 0.984}
